All values here come from patent EP3409295A1.

Measured tissue level at time at 1 h, listed per entry for reference.
method description: in vivo
condition info: female, SD, rat, iv, 5 mg/kg
Return type: number; implicit unit ng/g.

COc1ccc2c3c1O[C@H]1[C@@H](OCCOCCOCCOCCO[C@H]4C=C[C@H]5[C@H]6Cc7ccc(OC)c8c7[C@@]5(CCN6C)[C@H]4O8)C=C[C@H]4[C@@H](C2)N(C)CC[C@@]341: 110
CN1CC[C@]23c4c5ccc(O)c4O[C@H]2[C@@H](OCCOCCOCCOCCOCCO[C@H]2C=C[C@H]4[C@H]6Cc7ccc(O)c8c7[C@@]4(CCN6C)[C@H]2O8)C=C[C@H]3[C@H]1C5: 123

For the next question, use this molecule.
[Q] Please look up its tissue level at time at 1 h: `CN1CC[C@]23c4c5ccc(O)c4O[C@H]2[C@@H](OCCO[C@H]2C=C[C@H]4[C@H]6Cc7ccc(O)c8c7[C@@]4(CCN6C)[C@H]2O8)C=C[C@H]3[C@H]1C5`
[A] 299
